# system name: Beta-3 Adrenergic Receptor (Homo sapiens (Human))
# Sequence (P13945 whole entry, species assumed): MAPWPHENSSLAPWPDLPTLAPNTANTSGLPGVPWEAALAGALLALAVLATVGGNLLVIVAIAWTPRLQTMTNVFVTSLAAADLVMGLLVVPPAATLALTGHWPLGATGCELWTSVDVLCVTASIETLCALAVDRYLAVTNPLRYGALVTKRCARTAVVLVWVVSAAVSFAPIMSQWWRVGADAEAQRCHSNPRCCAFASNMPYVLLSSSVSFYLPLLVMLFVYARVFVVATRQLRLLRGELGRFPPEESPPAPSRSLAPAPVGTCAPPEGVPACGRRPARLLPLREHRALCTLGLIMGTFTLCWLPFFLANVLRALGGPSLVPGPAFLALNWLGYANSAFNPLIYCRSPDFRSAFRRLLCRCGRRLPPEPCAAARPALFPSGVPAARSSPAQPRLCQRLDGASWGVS
# protocol notes: Homogeneous Time-Resolved Fluorescence (HTRF) cAMP antagonist assay, IC50 determination
# test context: CHO-K1 cells stably expressing recombinant receptor, isoproterenol at EC90
Answer each item with its documented pIC50.
Answers are plain numbers, as −log10 of the molar value.

The cases that follow already have their pIC50 on record.
response.value for CNS(=O)(=O)c1cccc(OC[C@@H](O)CNC2COC3(CCN(S(=O)(=O)c4ccccn4)CC3)C2)c1 (stereo partly drawn) (field: pIC50) = 7.13

Data point: "CN1CCOc2ncc(S(=O)(=O)N3CCC4(CC3)C[C@@H](NC[C@H](O)COc3cccc(S(=O)(=O)NCCO)c3)CO4)cc21" ; pIC50 = 6.95

Short answer for CNS(=O)(=O)c1cccc(OC[C@@H](O)CNC2COC3(CCN(S(=O)(=O)c4ccccc4-c4ccc(CN)cc4)CC3)C2)c1 (stereo partly drawn) : pIC50 was 6.45

Below are some compounds; for each one, tell me its pIC50.
1. NS(=O)(=O)c1cccc(OC[C@@H](O)CN[C@H]2COC3(CCN(S(=O)(=O)c4cnc5cc[nH]c5c4)CC3)C2)c1
2. CNS(=O)(=O)c1cccc(OC[C@@H](O)CNC2COC3(CCN(S(=O)(=O)c4cccc(-c5cccc(C#N)c5)c4)CC3)C2)c1 (stereo partly drawn)
3. CCCn1cc(-c2cccc(S(=O)(=O)N3CCC4(CC3)CC(NC[C@H](O)COc3cccc(S(=O)(=O)NC)c3)CO4)c2)cn1 (stereo partly drawn)

# output
[7.90, 7.54, 7.84]

* * *

Kindly state pIC50 for each of the entries shown.
# system name: Beta-3 Adrenergic Receptor (Homo sapiens (Human))
# protocol notes: Homogeneous Time-Resolved Fluorescence (HTRF) cAMP antagonist assay, IC50 determination
# test context: CHO-K1 cells stably expressing recombinant receptor, isoproterenol at EC90
Give bare numbers, as −log10 of the molar value.

Below, 6 molecules whose answers are already recorded.
Entry C[C@@H](NS(=O)(=O)c1cccc(OC[C@@H](O)CNC2COC3(CCN(S(=O)(=O)c4ccc5ccccc5c4)CC3)C2)c1)C1CC1 (stereo partly drawn) ; pIC50 = 6.95

// recorded pIC50 for CNS(=O)(=O)c1cccc(OC[C@@H](O)CNC2COC3(CCN(S(=O)(=O)c4ccc(Cl)cc4Cl)CC3)C2)c1 (stereo partly drawn) : 7.59

The molecule CCn1cc(-c2cccc(S(=O)(=O)N3CCC4(CC3)CC(NC[C@H](O)COc3cccc(S(=O)(=O)N(C)C)c3)CO4)c2)cn1 (stereo partly drawn) showed pIC50 equal to 6.97

Notebook: CCNS(=O)(=O)c1cccc(OC[C@@H](O)CNC2COC3(CCN(S(=O)(=O)c4cccc(-c5ccc(CC#N)cc5)c4)CC3)C2)c1 (stereo partly drawn) , pIC50 read as 7.50

// pIC50 lookup, molecule = CNS(=O)(=O)c1cccc(OC[C@@H](O)CNC2COC3(CCN(S(=O)(=O)c4cccc(-c5ccc(C(N)=O)cc5)c4)CC3)C2)c1 (stereo partly drawn) , result: 7.45

Given item CNS(=O)(=O)c1cccc(OC[C@@H](O)CNC2COC3(CCN(S(=O)(=O)c4cccc(-c5ccc(-c6noc(C)n6)cc5)c4)CC3)C2)c1 (stereo partly drawn) , the value recorded as its pIC50 is 6.99

Each molecule below has a reported value. Please supply its pIC50.
1. CCCn1cc(S(=O)(=O)N2CCC3(CC2)C[C@@H](NC[C@H](O)COc2cccc(S(=O)(=O)NC)c2)CO3)c(=O)c2ccccc21
2. CNS(=O)(=O)c1cccc(OC[C@@H](O)CNC2COC3(CCN(S(=O)(=O)c4cc(C)cc(F)c4)CC3)C2)c1 (stereo partly drawn)
3. CNS(=O)(=O)c1cccc(OC[C@@H](O)CNC2COC3(CCN(S(=O)(=O)c4ccc(-c5ccc(C(F)(F)F)cc5)cc4)CC3)C2)c1 (stereo partly drawn)
4. CNS(=O)(=O)c1cccc(OC[C@@H](O)CNC2COC3(CCN(S(=O)(=O)c4cccc(-c5ccc(C(=N)N)cc5)c4)CC3)C2)c1 (stereo partly drawn)
5. C[C@H](CO)NS(=O)(=O)c1cccc(OC[C@@H](O)CNC2COC3(CCN(S(=O)(=O)c4ccc5ccccc5c4)CC3)C2)c1 (stereo partly drawn)
6. C[C@H](CO)NS(=O)(=O)c1cccc(OC[C@@H](O)CN[C@H]2COC3(CCN(S(=O)(=O)c4cnc5c(c4)N(C)CCO5)CC3)C2)c1

# output
[7.06, 8.09, 7.17, 7.66, 7.38, 6.76]

* * *

# system name: UniProt:P13945
# protocol notes: Homogeneous Time-Resolved Fluorescence (HTRF) cAMP antagonist assay, IC50 determination
# test context: CHO-K1 cells stably expressing recombinant receptor, isoproterenol at EC90
attribute measured: pIC50
Answers are plain numbers, as −log10 of the molar value.

Some solved entries appear below for comparison.
Entry CNS(=O)(=O)c1cccc(OC[C@@H](O)CNC2COC3(CCN(S(=O)(=O)c4cccc(-c5ccc(CNCCO)cc5)c4)CC3)C2)c1 (some centres unmarked) under UniProt:P13945 had pIC50 of 7.37

Entry "CNS(=O)(=O)c1cccc(OC[C@@H](O)CN[C@H]2COC3(CCN(S(=O)(=O)c4cnc5[nH]cc(C(F)(F)F)c5c4)CC3)C2)c1" : pIC50 on UniProt:P13945 = 8.16

"CNS(=O)(=O)c1cccc(OC[C@@H](O)CN[C@@H]2COC3(CCN(S(=O)(=O)c4ccc5c(c4)NC(=O)CO5)CC3)C2)c1" tested on UniProt:P13945 gave pIC50: 7.89

For every item in the list below, what is its measured pIC50?
1. CNS(=O)(=O)c1cccc(OC[C@@H](O)CNC2COC3(CCN(S(=O)(=O)c4ccc(F)c(F)c4)CC3)C2)c1 (some centres unmarked)
2. CNS(=O)(=O)c1cccc(OC[C@@H](O)CNC2COC3(CCN(S(=O)(=O)c4ccc5occc5c4)CC3)C2)c1 (some centres unmarked)
3. CCN(C(C)C)S(=O)(=O)c1cccc(OC[C@@H](O)CNC2COC3(CCN(S(=O)(=O)c4ccc5ccccc5c4)CC3)C2)c1 (some centres unmarked)

# output
7.45
7.71
6.55

For every item in the list below, what is its measured pIC50?
1. CNS(=O)(=O)c1cccc(OC[C@@H](O)CNC2COC3(CCN(S(=O)(=O)c4cc(C)cc(-c5ccc(CN)cc5)c4)CC3)C2)c1 (some centres unmarked)
2. CNS(=O)(=O)c1cccc(OC[C@@H](O)CN[C@H]2COC3(CCN(S(=O)(=O)c4cccc(-c5ccc(CC#N)cc5)c4)CC3)C2)c1

# output
7.61
7.25

* * *

# system name: Beta-3 Adrenergic Receptor (Homo sapiens (Human))
# protocol notes: Homogeneous Time-Resolved Fluorescence (HTRF) cAMP antagonist assay, IC50 determination
# test context: CHO-K1 cells stably expressing recombinant receptor, isoproterenol at EC90
Please provide measured IC50 for the entries that follow.
Numbers only, in nM.

Batch request: IC50 per item, same order as input.
1. CNS(=O)(=O)c1cccc(OC[C@@H](O)CN[C@H]2COC3(CCN(S(=O)(=O)c4cnc5cn[nH]c5c4)CC3)C2)c1
2. Cc1c[nH]c2ncc(S(=O)(=O)N3CCC4(CC3)C[C@@H](NC[C@H](O)COc3cccc(S(N)(=O)=O)c3)CO4)cc12
3. CNS(=O)(=O)c1cccc(OC[C@@H](O)CN[C@H]2COC3(CCN(c4ncc(C(F)(F)F)cn4)CC3)C2)c1
4. CNS(=O)(=O)c1cccc(OC[C@@H](O)CN[C@H]2COC3(CCN(S(=O)(=O)c4cnc5ncn(C)c5c4)CC3)C2)c1
5. CCNS(=O)(=O)c1cccc(OC[C@@H](O)CNC2COC3(CCN(S(=O)(=O)c4cccc(-c5ccc(CN)cc5)c4)CC3)C2)c1 (stereo partly shown)

# output
1: 18.9; 2: 13.6; 3: 1840; 4: 273; 5: 20.4

Give one value of IC50 per listed molecule.
1. CN(C)S(=O)(=O)c1cccc(OC[C@@H](O)CNC2COC3(CCN(S(=O)(=O)c4cccc(-c5ccc(N)nc5)c4)CC3)C2)c1 (stereo partly shown)
2. CNS(=O)(=O)c1cccc(OC[C@@H](O)CNC2COC3(CCN(S(=O)(=O)c4cccc(-c5ccc(CNC(=O)C(N)=O)cc5)c4)CC3)C2)c1 (stereo partly shown)
3. CNS(=O)(=O)c1cccc(OC[C@@H](O)CN[C@H]2COC3(CCN(S(=O)(=O)c4ccc5c(n4)OCC(=O)N5)CC3)C2)c1
4. CCn1cc(S(=O)(=O)N2CCC3(CC2)C[C@@H](NC[C@H](O)COc2cccc(S(=O)(=O)NC)c2)CO3)c(=O)c2cc(C)ccc21
5. CNS(=O)(=O)c1cccc(OC[C@@H](O)CNC2COC3(CCN(S(=O)(=O)c4ccc(-c5ccc(CN)cc5)cc4OC(F)(F)F)CC3)C2)c1 (stereo partly shown)

# output
21.3
35.2
36.9
43.9
80.6

For every item in the list below, what is its measured IC50?
1. O=S(=O)(NCC1CC1)c1cccc(OC[C@@H](O)CNC2COC3(CCN(S(=O)(=O)c4ccc5ccccc5c4)CC3)C2)c1 (stereo partly shown)
2. CNS(=O)(=O)c1cccc(OC[C@@H](O)CN[C@@H]2COC3(CCN(S(=O)(=O)c4ccc(OC)c(C)c4)CC3)C2)c1
3. CNS(=O)(=O)c1cccc(OC[C@@H](O)CNC2COC3(CCN(S(=O)(=O)CCc4ccncc4)CC3)C2)c1 (stereo partly shown)

# output
38.7
24.7
131
